Tested on: ZEAMX (Corn, Field)
Experiment: Postemergence herbicidal evaluation
Type: in vivo, Zea mays
Conditions: postemergence, rate 0.0313 kg/ha
Where ZEAMX herbicidal rating equals or exceeds 6, the correct label is Yes; where it does not, the label is No.

                                   molecule  answer_label
0  Cn1c(C(F)(F)F)cc(=O)n(-c2cc(N=C3SCC(=O)N3Cc3ccccc3)c(Cl)cc2F)c1=O            No
1  C=CCN1C(=O)C(CC(=O)OCCF)SC1=Nc1cc(-n2c(=O)cc(C(F)(F)F)n(C)c2=O)c(F)cc1Cl (centres unmarked)           Yes
2  CC(C)OC(=O)CC1SC(=Nc2cc(-n3c(=O)cc(C(F)(F)F)n(C)c3=O)c(F)cc2Cl)N(C)C1=O (centres unmarked)           Yes
3  C=CCN1C(=O)CSC1=Nc1cc(N2C(=O)C3=C(CCCC3)C2=O)c(F)cc1Cl            No

* * *

System: ECHCG (Barnyardgrass)
Test: Postemergence herbicidal evaluation
Type: in vivo, Echinochloa crus-galli
Details: postemergence, rate 0.0315 kg/ha
Parameter: ECHCG herbicidal rating

>>> df
                                   molecule        subject_of_test  measured_value
0  CN1C(=O)C(CC(=O)OCCF)SC1=Nc1cc(-n2c(=O)cc(C(F)(F)F)n(C)c2=O)c(F)cc1Cl (stereo not drawn) [Compound 93]  ECHCG (Barnyardgrass)             2.0
1  CN(C)N1C(=O)CSC1=Nc1cc(-n2c(=O)cc(C(F)(F)F)n(C)c2=O)c(F)cc1Cl [Compound 23]  ECHCG (Barnyardgrass)             2.0
2  CCOC(=O)CN1C(=O)CO/C1=N/c1cc(-n2c(=O)cc(C(F)(F)F)n(C)c2=O)c(F)cc1Cl [Compound 22]  ECHCG (Barnyardgrass)             2.0
3  CN1C(=O)C(CC(=O)Nc2ccccc2)SC1=Nc1cc(-n2c(=O)cc(C(F)(F)F)n(C)c2=O)c(F)cc1Cl (stereo not drawn) [Compound 91]  ECHCG (Barnyardgrass)             0.0
4  C#CCOC(=O)CC1SC(=Nc2cc(-n3c(=O)cc(C(F)(F)F)n(C)c3=O)c(F)cc2Cl)N(CC=C)C1=O (stereo not drawn) [Compound 67]  ECHCG (Barnyardgrass)             6.0
5  CCOC(=O)CN1C(=O)C(=Cc2ccccc2)SC1=Nc1cc(-n2c(=O)cc(C(F)(F)F)n(C)c2=O)c(F)cc1Cl [Compound 19]  ECHCG (Barnyardgrass)             2.0

* * *

This section presents compounds with their documented GALAP herbicidal rating values.
Tested on: GALAP (Galium)
Assay: Postemergence herbicidal evaluation
Format: in vivo, Galium aparine
Details: postemergence, rate 0.0630 kg/ha
Parameter: GALAP herbicidal rating

                                   compound  measured_value
0  CC(C)C[C@@H](C(=O)O)N1C(=O)CSC1=Nc1cc(-n2c(=O)cc(C(F)(F)F)n(C)c2=O)c(F)cc1Cl             7.0
1  CN1C(=O)C(CC(=O)OCCF)SC1=Nc1cc(-n2c(=O)cc(C(F)(F)F)n(C)c2=O)c(F)cc1Cl (stereo not shown)             6.0
2  C[C@H](C(=O)O)N1C(=O)CSC1=Nc1cc(-n2c(=O)cc(C(F)(F)F)n(C)c2=O)c(F)cc1Cl             3.0
3  CCOC(=O)[C@H](Cc1ccccc1)N1C(=O)CSC1=Nc1cc(-n2c(=O)cc(C(F)(F)F)n(C)c2=O)c(F)cc1Cl             5.0
4  CN1C(=O)C(CC(=O)Nc2ccccc2)SC1=Nc1cc(-n2c(=O)cc(C(F)(F)F)n(C)c2=O)c(F)cc1Cl (stereo not shown)             0.0
5  CCOC(=O)CN1C(=O)CO/C1=N/c1cc(-n2c(=O)cc(C(F)(F)F)n(C)c2=O)c(F)cc1Cl             3.0
6  CN(C)N1C(=O)CSC1=Nc1cc(-n2c(=O)cc(C(F)(F)F)n(C)c2=O)c(F)cc1Cl             9.0
